Reference for the values: PubChem BioAssay AID1745844

Tested on: rodent lifetime carcinogenesis bioassay, tumor incidence TD50
Test: carcinogenic potency in animals, long-term in vivo studies, CPDB compilation (AID 1745844)
Conditions: mouse; strain BALB/c; females; i.p.; site: any site (literature study); lesion: one or several types; types not named; dosed 50 weeks; study length 72 weeks
reported_metric: TD50 (mg/kg/day)
Value expressed in mg/kg/day; do not type the unit.

Using the record for `Nc1ncn([C@@H]2O[C@H](CO)[C@@H](O)[C@H]2O)c(=O)n1` , report its TD50.
0.0364

* * *

Tested on: rodent lifetime carcinogenesis bioassay, tumor incidence TD50
Assay: carcinogenic potency in animals, long-term in vivo studies, CPDB compilation (AID 1745844)
Settings: mouse; strain Tuck; males; in feed; site: liver; lesion: hyperplastic nodule; dosed 80 weeks; study length 80 weeks
Activity calls are given as the source filed them. The rule behind the calls is not given here.
reported_metric: TD50

Using the record for `O=c1c(CO)c/c(=N/Nc2ccc(S(=O)(=O)O)c3ccccc23)c(=O)/c1=N/Nc1ccc(S(=O)(=O)O)c2ccccc12` , report its TD50.
106000 mg/kg/day (inactive)

* * *

Tested on: rodent lifetime carcinogenesis bioassay, tumor incidence TD50
Assay: carcinogenic potency in animals, long-term in vivo studies, CPDB compilation (AID 1745844)
Details: mouse; strain Swiss; females; i.p.; site: uterus; lesion: sarcoma; dosed 26 weeks; study length 78 weeks
reported_metric: TD50 (mg/kg/day)
Value expressed in mg/kg/day; do not type the unit.

Using the record for `CN(N=O)C(=O)N[C@@H](C=O)[C@@H](O)[C@H](O)[C@H](O)CO` , report its TD50.
13.9

* * *

Tested on: rodent lifetime carcinogenesis bioassay, tumor incidence TD50
Test: carcinogenic potency in animals, long-term in vivo studies, CPDB compilation (AID 1745844)
Settings: rat; strain Fischer 344; males; by gavage; site: thyroid gland; lesion: c-cell adenoma + c-cell carcinoma; dosed 94 weeks; study length 104 weeks
reported_metric: TD50 (mg/kg/day)
Value expressed in mg/kg/day; do not type the unit.

Using the record for `ClCC(Cl)CCl` , report its TD50.
8.15

* * *

Test system: rodent lifetime carcinogenesis bioassay, tumor incidence TD50
Test: carcinogenic potency in animals, long-term in vivo studies, CPDB compilation (AID 1745844)
Conditions: rat; strain Fischer 344; males; by gavage; site: preputial gland; lesion: adenoma, NOS + carcinoma, NOS + squamous-cell carcinoma; dosed 103 weeks; study length 106 weeks
reported_metric: TD50 (mg/kg/day)
Value expressed in mg/kg/day; do not type the unit.

Using the record for `C=CCOC(=O)CC(C)C` , report its TD50.
136

* * *

Tested on: rodent lifetime carcinogenesis bioassay, tumor incidence TD50
Assay: carcinogenic potency in animals, long-term in vivo studies, CPDB compilation (AID 1745844)
Details: rat; strain Osborne-Mendel; both sexes; in feed; site: liver; lesion: adenoma; dosed 104 weeks; study length 104 weeks
Activity calls are given as the source filed them. How the calls were made is not given here.
Give TD50 for every item shown.

Using the record for O=C(O)C1=NN(c2ccc(S(=O)(=O)O)cc2)C(=O)C1N=Nc1ccc(S(=O)(=O)O)cc1 (configuration not stated) , report its TD50.
231000 mg/kg/day (inactive)

`Cc1cc(C)c(S(=O)(=O)O)cc1N=Nc1cc(S(=O)(=O)O)c2ccccc2c1O` ?
59800 mg/kg/day (inactive)

* * *

Tested on: rodent lifetime carcinogenesis bioassay, tumor incidence TD50
Experiment: carcinogenic potency in animals, long-term in vivo studies, CPDB compilation (AID 1745844)
Settings: rat; strain Fischer 344; females; inhaled; site: kidney; lesion: tubule carcinoma; dosed 103 weeks; study length 104 weeks
reported_metric: TD50 (mg/kg/day)
Value expressed in mg/kg/day; do not type the unit.

Form field - read-out: TD50; system: rodent lifetime carcinogenesis bioassay, tumor incidence TD50; submitted item: `FC(F)=C(F)F`
7380

* * *

Tested on: rodent lifetime carcinogenesis bioassay, tumor incidence TD50
Experiment: carcinogenic potency in animals, long-term in vivo studies, CPDB compilation (AID 1745844)
Settings: mouse; strain B6C3F1; males; inhaled; site: liver; lesion: hepatocellular adenoma; dosed 82 weeks; study length 104 weeks
reported_metric: TD50 (mg/kg/day)
Value expressed in mg/kg/day; do not type the unit.

Using the record for `C=CC=C` , report its TD50.
34.1

* * *

Test system: rodent lifetime carcinogenesis bioassay, tumor incidence TD50
Test: carcinogenic potency in animals, long-term in vivo studies, CPDB compilation (AID 1745844)
Conditions: mouse; strain ICR/Jcl; males; in feed; site: forestomach; lesion: squamous-cell papilloma; dosed 52 weeks; study length 65 weeks
reported_metric: TD50 (mg/kg/day)
Value expressed in mg/kg/day; do not type the unit.

Form field - read-out: TD50; system: rodent lifetime carcinogenesis bioassay, tumor incidence TD50; submitted item: `CCCCN(CCCC)N=O`
7.69

* * *

Tested on: rodent lifetime carcinogenesis bioassay, tumor incidence TD50
Experiment: carcinogenic potency in animals, long-term in vivo studies, CPDB compilation (AID 1745844)
Settings: mouse; strain Swiss albino; females; in drinking water; site: liver; lesion: angiosarcoma; dosed 111 weeks; study length 111 weeks
reported_metric: TD50

Using the record for `CC(=O)NNc1ccccc1` , report its TD50.
105 mg/kg/day

* * *

System: rodent lifetime carcinogenesis bioassay, tumor incidence TD50
Test: carcinogenic potency in animals, long-term in vivo studies, CPDB compilation (AID 1745844)
Settings: mouse; strain B6C3F1; females; in feed; site: liver; lesion: hepatocellular carcinoma; dosed 79 weeks; study length 94 weeks
reported_metric: TD50

Using the record for `Nc1ccc2c(c1)C(=O)c1ccccc1C2=O` , report its TD50.
2820 mg/kg/day

* * *

Tested on: rodent lifetime carcinogenesis bioassay, tumor incidence TD50
Assay: carcinogenic potency in animals, long-term in vivo studies, CPDB compilation (AID 1745844)
Conditions: rat; strain Wistar; males; by gavage; site: any site (literature study); lesion: several types; types named in the paper; dosed 73 weeks; study length 73 weeks
reported_metric: TD50 (mg/kg/day)
Value expressed in mg/kg/day; do not type the unit.

Using the record for `CCN(CC)C(C)=O` , report its TD50.
11.8

* * *

System: rodent lifetime carcinogenesis bioassay, tumor incidence TD50
Assay: carcinogenic potency in animals, long-term in vivo studies, CPDB compilation (AID 1745844)
Conditions: mouse; strain ICR/Jcl; females; in drinking water; site: lung; lesion: one or several types; types not named; dosed 109 weeks; study length 109 weeks
Active and inactive are the calls of the source. The rule behind the calls is not given here.
reported_metric: TD50

Using the record for `O=NO` , report its TD50.
7230 mg/kg/day (inactive)

* * *

Test system: rodent lifetime carcinogenesis bioassay, tumor incidence TD50
Assay: carcinogenic potency in animals, long-term in vivo studies, CPDB compilation (AID 1745844)
Settings: mouse; strain B6C3F1; males; by gavage; site: forestomach; lesion: squamous-cell carcinoma + squamous-cell papilloma; dosed 104 weeks; study length 104 weeks
reported_metric: TD50

Form field - read-out: TD50; system: rodent lifetime carcinogenesis bioassay, tumor incidence TD50; submitted item: `C/C=C/C=C/C=O`
279 mg/kg/day

* * *

System: rodent lifetime carcinogenesis bioassay, tumor incidence TD50
Experiment: carcinogenic potency in animals, long-term in vivo studies, CPDB compilation (AID 1745844)
Conditions: rat; strain Charles River CD1; females; in feed; site: urinary bladder; lesion: several types; types named in the paper; dosed 104 weeks; study length 104 weeks
reported_metric: TD50 (mg/kg/day)
Value expressed in mg/kg/day; do not type the unit.

Using the record for `CCOP(=O)=O.CCOP(=O)=O.CCOP(=O)=O.[Al+3]` , report its TD50.
17600

* * *

Tested on: rodent lifetime carcinogenesis bioassay, tumor incidence TD50
Experiment: carcinogenic potency in animals, long-term in vivo studies, CPDB compilation (AID 1745844)
Conditions: mouse; strain Charles River CD1; females; in feed; site: liver; lesion: hepatocellular adenoma; dosed 92 weeks; study length 92 weeks
reported_metric: TD50

Using the record for `NC(=O)OCC(COC(N)=O)c1ccccc1` , report its TD50.
10400 mg/kg/day

* * *

System: rodent lifetime carcinogenesis bioassay, tumor incidence TD50
Assay: carcinogenic potency in animals, long-term in vivo studies, CPDB compilation (AID 1745844)
Settings: mouse; strain B6C3F1; males; by gavage; site: adrenal gland + liver; lesion: pheochromocytoma + hepatocellular carcinoma; dosed 78 weeks; study length 90 weeks
reported_metric: TD50 (mg/kg/day)
Value expressed in mg/kg/day; do not type the unit.

Using the record for `ClCC(Cl)Cl` , report its TD50.
65

* * *

Tested on: rodent lifetime carcinogenesis bioassay, tumor incidence TD50
Assay: carcinogenic potency in animals, long-term in vivo studies, CPDB compilation (AID 1745844)
Conditions: rat; strain Fischer 344; males; in feed; site: all sites; lesion: malignant lymphoma; dosed 104 weeks; study length 104 weeks
reported_metric: TD50

Using the record for `O=C1c2ccccc2C(=O)N1SC(Cl)(Cl)Cl` , report its TD50.
1070 mg/kg/day

* * *

Give TD50 for every item shown.
Test system: rodent lifetime carcinogenesis bioassay, tumor incidence TD50
Experiment: carcinogenic potency in animals, long-term in vivo studies, CPDB compilation (AID 1745844)
Settings: mouse; strain B6C3F1; females; by gavage; site: lung; lesion: alveolar/bronchiolar adenoma + alveolar/bronchiolar carcinoma; dosed 103 weeks; study length 104 weeks
Value expressed in mg/kg/day; do not type the unit.

Using the record for `ClC(Cl)C(Cl)(Cl)Cl` , report its TD50.
1030

`O=CCC=O` ?
4410

`ClCC(Cl)(Cl)Cl` ?
1820

`CCCCCl` ?
13100

`COc1c(Cl)c(Cl)c(Cl)c(Cl)c1Cl` ?
776

`O=C1CCc2ccccc2O1` ?
96100
